test system: methionyl-tRNA synthetase (Trypanosoma brucei brucei); assay: T. brucei MetRS inhibitors, confirmation, biochemical, luminescence (AID 624412); settings: T. brucei MetRS enzyme, luminescence (ATP depletion); at 11.9 µM; stronger effect = higher value
The whole screen tested about 1,400 compounds, of which about 1,300 (93%) were called active. The set was probably picked from earlier hits. Only a sample is shown.
# inhibition per record follows
assay readout: inhibition (%)

>  <chemical structure>
c1ccc(CN=C2Nc3ccccc3CS2)nc1

>  <measured number>
22

$$$$
>  <chemical structure>
O=C(NNc1cc(Cl)cc(Cl)c1)c1c(F)cccc1Cl

>  <measured number>
66.4

$$$$
>  <chemical structure>
NS(=O)(=O)c1ccc(CCNC(=O)Nc2ccc(Cl)cc2)cc1

>  <measured number>
37.4

$$$$
>  <chemical structure>
Cc1ccc(S(=O)(=O)c2c[nH]c3ccc(Cl)cc3c2=O)cc1

>  <measured number>
85.2

$$$$
>  <chemical structure>
CCCCCn1nnnc1-c1nc2cc3ccccc3cc2[nH]c1=O

>  <measured number>
42.4

$$$$
>  <chemical structure>
COc1ccccc1-n1c(SCC(=O)Nc2ccc(Cl)cc2)nc(O)c(Cc2ccccc2)c1=O

>  <measured number>
77.2

$$$$
